target: TYK2 (JH2domain-pseudokinase) (Homo sapiens, UniProt P29597)
Construct: TYK2 (JH2domain-pseudokinase)-tagged T7 phage strains were prepared in an E. coli host derived from the BL21 strain
Sequence (P29597 589-875 limits assumed): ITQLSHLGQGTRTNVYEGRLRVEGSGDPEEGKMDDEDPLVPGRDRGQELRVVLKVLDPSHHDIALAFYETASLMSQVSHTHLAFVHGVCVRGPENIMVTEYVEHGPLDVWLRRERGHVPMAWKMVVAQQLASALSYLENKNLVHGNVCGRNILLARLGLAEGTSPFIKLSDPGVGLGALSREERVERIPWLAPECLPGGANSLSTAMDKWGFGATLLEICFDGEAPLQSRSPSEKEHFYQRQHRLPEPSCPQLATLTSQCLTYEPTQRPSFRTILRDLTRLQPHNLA
assay.procedure: TYK2 JH2 domain binding assay (KINOMEscan)
Method: TYK2 (JH2domain-pseudokinase) KINOMEscan assay. […] Kds were determined using an 11-point 3-fold compound dilution series with three DMSO control points. […] The kinase concentration in the eluates was measured by qPCR. […] An 11-point 3-fold serial dilution of each test compound was prepared in 100% DMSO at 100x final test concentration and subsequently diluted to 1x in the assay (final DMSO concentration = 1%). Most Kds were determined using a compound top concentration = 30,000 nM. […]
pKd: −log10 of the molar value.
Kindly state pKd for each of the entries shown.

Enquiry: # lookup: pKd of Cc1cc(Nc2cc(Nc3ncc(-c4nc(C)n(C)n4)cc3N(C)S(C)(=O)=O)ncn2)ncn1 [Example 154]
Return: > 9.70

Enquiry: Could you tell me which pKd is on file for Cc1cc(Nc2cc(Nc3ncc(-c4cnc(C)n4C)cc3N(C)S(C)(=O)=O)ncn2)nc(C)n1 [Example 142] ?
Return: > 9.70

Enquiry: So what does the record say about pKd for COc1ccc(C)nc1Nc1cc(Nc2cc(C)nc(C)n2)ncn1 [Example 8] ?
Return: < 8.00

Enquiry: What value of measured pKd is listed for COc1cc(F)ccc1Nc1cc(Nc2cc(C)nc(C)n2)ncn1 [Example 21] ?
Return: 8.00 to 9.00

Enquiry: State the recorded pKd for this entry: COc1cc(-c2cnn(C)c2C)c(C)nc1Nc1cc(Nc2cc(C)ncn2)ncn1 [Example 176]
Return: 9.00 to 9.70

Enquiry: Can you look up the measured pKd of Cc1ccc(Nc2cc(Nc3cc(C)nc(C)n3)ncn2)c(N(C)S(C)(=O)=O)c1 [Example 69] for me?
Return: > 9.70

Enquiry: Record request: pKd value, item Cc1c(-c2cnc(Nc3cc(NC(=O)[C@H]4C[C@H]4F)ncn3)c(N(C)S(C)(=O)=O)c2)cnn1C [Example 160]
Return: > 9.70

Enquiry: Report pKd for Cc1cc(Nc2cc(Nc3ccccc3N(C)S(=O)(=O)C(F)(F)F)ncn2)nc(C)n1 [Example 71] please.
Return: > 9.70

Enquiry: May I ask what pKd has been recorded for COc1c(Nc2cc(Nc3cc(C)nc(C)n3)ncn2)ccc(-c2ncn(C)n2)c1C [Example 83] ?
Return: 8.00 to 9.00

Enquiry: Which value of pKd has been reported for Cc1cc(Nc2cc(Nc3nc(C)ccc3S(C)(=O)=O)ncn2)ncn1 [Example 156] in the records?
Return: 8.00 to 9.00

Enquiry: Fill in the blank: the reported pKd of COc1c(Nc2cc(Nc3cc(C)ncn3)ncn2)cc(C)cc1-c1ncn(C)n1 [Example 104] is ____.
Return: 9.00 to 9.70

Enquiry: Query (compound): COc1c(C)cccc1Nc1cc(Nc2cnn(C3CCOCC3)c2)ncn1 [Example 9] ; field requested: pKd
Return: < 8.00

Enquiry: For the compound shown here, COc1c(Nc2cc(Nc3cc(C)nc(C)n3)ncn2)ccc(F)c1F [Example 19] , give the reported pKd.
Return: 8.00 to 9.00

Enquiry: For the compound COc1c(Nc2cc(Nc3cc(C)nc(C)n3)ncn2)cccc1-c1nnn(C)n1 [Example 41] , what pKd is on record?
Return: > 9.70

Enquiry: Requested field: pKd. Item: Cc1cc(Nc2cc(Nc3ccc(C4=CCCCO4)cc3N(C)S(C)(=O)=O)ncn2)nc(C)n1 [Example 92]
Return: > 9.70

Enquiry: Which pKd is listed for COc1c(-c2noc(C(F)(F)F)n2)ccnc1Nc1cc(Nc2cc(C)nc(C)n2)ncn1 [Example 143] ?
Return: 8.00 to 9.00

Enquiry: For Cc1cc(Nc2cc(Nc3ncc(-c4cnn(C)c4C)cc3N(C)S(C)(=O)=O)ncn2)ncn1 [Example 135] , what is its reported pKd?
Return: > 9.70

Enquiry: Which pKd value belongs to Cc1cc(Nc2cc(Nc3ncc(-c4ncc(C)n4C)cc3N(C)S(C)(=O)=O)ncn2)nc(C)n1 [Example 140] ?
Return: > 9.70

Enquiry: Consider the compound shown here: COc1c(-c2ncn(C)n2)ccnc1Nc1cc(Nc2cc(C)nc(C)n2)ncn1 [Example 119] What is its recorded pKd?
Return: > 9.70

Enquiry: Give the measured pKd of COc1c(Nc2cc(Nc3cc(C)nc(C)n3)ncn2)cccc1-c1nc(C(F)(F)F)n(C)n1 [Example 29] .
Return: 8.00 to 9.00

Enquiry: # input compound: Cc1cc(Nc2cc(Nc3cnccc3N(C)S(C)(=O)=O)ncn2)nc(C)n1 [Example 35] ; wanted: its pKd
Return: < 8.00

Enquiry: Item Cc1cc(Nc2cc(Nc3cc(F)ccc3N(C)S(C)(=O)=O)ncn2)nc(C)n1 [Example 75] has what recorded pKd?
Return: > 9.70

Enquiry: I would be grateful if you could share the reported pKd for COc1c(Nc2cc(Nc3cc(C)nc(C)n3)ncn2)cccc1-c1nc(C)n(CC(F)(F)F)n1 [Example 38] .
Return: 9.00 to 9.70

Enquiry: Which value of pKd has been reported for COCc1nc(-c2cccc(Nc3cc(Nc4cc(C)nc(C)n4)ncn3)c2OC)no1 [Example 30] in the records?
Return: 9.00 to 9.70

Enquiry: Any idea what pKd was measured for COc1c(C)cccc1Nc1cc(Nc2cc(C)nc(C)n2)ncn1 [Example 6] ?
Return: 9.00 to 9.70

Enquiry: Which pKd reading was recorded for the compound Cc1cc(Nc2cc(Nc3ccc(-c4cnn(C)c4C)cc3N(C)S(C)(=O)=O)ncn2)nc(C)n1 [Example 25] ?
Return: > 9.70

Enquiry: Requested field: pKd. Item: Cc1cc(Nc2cc(Nc3ncc(-c4cnn(C)c4C)cc3N(C)S(C)(=O)=O)ncn2)nc(C)n1 [Example 124]
Return: > 9.70

Enquiry: Fill in: pKd of Cc1cc(Nc2cc(Nc3ccc(-c4cncn4C)cc3N(C)S(C)(=O)=O)ncn2)nc(C)n1 [Example 24] is ___
Return: > 9.70

Enquiry: Need pKd, item COc1ccccc1Nc1cc(NC(=O)C2CC2)ncn1 [Example 2]
Return: < 8.00

Enquiry: Using the record for Cc1cc(Nc2cc(Nc3ncccc3P(C)(C)=O)ncn2)nc(C)n1 [Example 145] , report its pKd.
Return: > 9.70

Enquiry: Which pKd is listed for COc1c(Nc2cc(Nc3cc(C)nc(C)n3)ncn2)cccc1-c1nc(C)n(C2COC2)n1 [Example 49] ?
Return: 9.00 to 9.70

Enquiry: Tell me the measured pKd of Cc1cc(Nc2cc(Nc3ncc(-c4cnn(C)c4C)cc3P(C)(C)=O)ncn2)nc(C)n1 [Example 149] , please.
Return: > 9.70

Enquiry: Given Cc1cc(Nc2cc(Nc3ccc(-c4nc(C)n(C)n4)cc3N(C)S(C)(=O)=O)ncn2)nc(C)n1 [Example 97] , state its recorded pKd.
Return: > 9.70

Enquiry: Given the compound Cc1cc(Nc2cc(Nc3ccccc3N(C)S(C)(=O)=O)ncn2)ncc1F [Example 101] , what is its reported pKd?
Return: > 9.70
